Origin of values: patent US10836763B2

Assay: Lung S9 metabolism
Type: in vitro ADME, human
Conditions: human lung S9, 1 μM compound, 1 mg/mL S9 protein, NADPH and PAPS
Satisfied if Compound Remaining at 60 min (%) is below 30%. Not satisfied if not; exact matches included in Not satisfied.

Solved entries:
molecule: CCCN1Cc2[nH]c(-c3n[nH]c4cc(-c5ccc(O)cc5CC)ccc34)nc2C[C@H]1C(=O)N1CCN(CCO)CC1
cat: Not satisfied
--
molecule: CCCN1Cc2[nH]c(-c3n[nH]c4cc(-c5cc(F)c(O)cc5CC)ccc34)nc2C[C@H]1C(=O)N1C[C@@H]2C[C@H]1CN2C [Compound C-2, reference compound]
cat: Satisfied
--
molecule: CCc1cc(O)c(F)cc1-c1ccc2c(-c3nc4c([nH]3)CN(C(C)C)[C@H](C(=O)N3CC[C@H](N(C)C)C3)C4)n[nH]c2c1 [Compound C-6, reference compound]
cat: Satisfied

Quick check: does CCCN1Cc2[nH]c(-c3n[nH]c4cc(-c5cc(F)c(O)cc5CC)ccc34)nc2C[C@H]1C(=O)N1CCN(CCO)CC1 [Compound C-1, reference compound] have Compound Remaining at 60 min (%) under 30%? Satisfied

Quick check: does `CCc1cc(O)ccc1-c1ccc2c(-c3nc4c([nH]3)CN(C)[C@H](C(=O)N3CCN(C)C[C@@H]3C)C4)n[nH]c2c1` have Compound Remaining at 60 min (%) under 30%? Not satisfied

Quick check: does CCc1cc(O)c(F)cc1-c1ccc2c(-c3nc4c([nH]3)CN(C(C)C)[C@H](C(=O)N3CCCN(C)CC3)C4)n[nH]c2c1 [Compound C-4, reference compound] have Compound Remaining at 60 min (%) under 30%? Satisfied
